Tested on: NCI-H460 lung
Outcomes: active, inactive

compound: CC1=C2[C@@H](CC1)[C@]1(C)O[C@@](C(C)C)(C[C@H]1OC(=O)CO)[C@H]2OC(=O)C1CC1c1ccccc1 (some centres not stated)
assigned_label: inactive

compound: CC1C(C)N(C(=O)CCl)c2ccccc2N1C(=O)CCl (configuration not stated)
assigned_label: inactive

compound: CNC(=O)c1c(NC(=O)c2ccc(C(C)(C)C)cc2)sc2c1CCC(=O)C2
assigned_label: active

compound: CCN(CC)CCN1C(=O)c2c(c3c4ccccc4[nH]c3c3ccc4ccccc4c23)C1=O
assigned_label: inactive

compound: COC(=O)c1ccc(CN2C(=O)C(Cl)=C(Nc3cccc(Cl)c3C)C2=O)cc1
assigned_label: inactive

compound: O=C(N/N=C\c1ccc(N(CCCl)CCCl)cc1[N+](=O)[O-])c1cccnc1
assigned_label: inactive

compound: COc1ccc(/C(COc2ccc3oc(-c4ccccc4)cc(=O)c3c2)=N\O)cc1
assigned_label: active

Numbers sourced from PubChem BioAssay (NCI).
